TESTED_ON: human mAChR M4 (Homo sapiens)
Construct: expressed in transfected cells; host or cells: CHO-K1 (American Type Culture Collection), stably expressing hM4 and Gqi5
PROTOCOL_NOTES: mAChR M4 cell-based functional assay: calcium mobilization (Fluo-4, FDSS), potentiation of EC20 acetylcholine response in hM4-Gqi5 CHO-K1 cells
TEST_CONTEXT: CHO-K1, % ACh maximum at 30 μM; human M4
Protocol: […] Calcium flux was measured using the Functional Drug Screening System (FDSS) 6000 or 7000 (Hamamatsu Corporation, Tokyo, Japan) as an increase in the fluorescent static ratio. […] Agonist activity was analyzed as a concentration-dependent increase in calcium mobilization upon compound addition. Positive allosteric modulator activity was analyzed as a concentration-dependent increase in the EC20 acetylcholine response. […]
Classification field: Satisfied = Emax at 30 µM at or over 90%; Not satisfied = Emax at 30 µM under 90%.

A selection of reference data follows.
SMILES_TEXT	CLASS
Cc1c(N2CCc3ncc(-c4ccnn4C)cc3C2)nn2c(=O)ccnc2c1C	Satisfied
CCc1cnc2cc(C)c(N3CCc4ncc(C(F)(F)F)cc4C3)nn2c1=O	Not satisfied
Cc1cc2nccc(=O)n2nc1N1CCc2ncc(Oc3ccccc3F)cc2C1	Not satisfied
Cc1ccc(-c2cnc3c(c2)CN(c2nn4c(=O)ccnc4cc2C)CC3)cn1	Not satisfied
Cc1cc2nccc(=O)n2nc1N1CCc2ncc(-c3cccc4c3CCC4)cc2C1	Not satisfied
Cc1c(N2CCc3ncc(-c4cc(F)ncc4F)cc3C2)nn2c(=O)ccnc2c1C	Not satisfied

# ---- query molecule ----
hey, is Emax at 30 µM for this one >= 90%? Cc1cc2nccc(=O)n2nc1N1CCc2ncc(N3CCOc4cc(F)ccc43)cc2C1 Satisfied

---

TESTED_ON: human mAChR M4 (Homo sapiens, UniProt P08173)
Sequence (P08173 whole entry): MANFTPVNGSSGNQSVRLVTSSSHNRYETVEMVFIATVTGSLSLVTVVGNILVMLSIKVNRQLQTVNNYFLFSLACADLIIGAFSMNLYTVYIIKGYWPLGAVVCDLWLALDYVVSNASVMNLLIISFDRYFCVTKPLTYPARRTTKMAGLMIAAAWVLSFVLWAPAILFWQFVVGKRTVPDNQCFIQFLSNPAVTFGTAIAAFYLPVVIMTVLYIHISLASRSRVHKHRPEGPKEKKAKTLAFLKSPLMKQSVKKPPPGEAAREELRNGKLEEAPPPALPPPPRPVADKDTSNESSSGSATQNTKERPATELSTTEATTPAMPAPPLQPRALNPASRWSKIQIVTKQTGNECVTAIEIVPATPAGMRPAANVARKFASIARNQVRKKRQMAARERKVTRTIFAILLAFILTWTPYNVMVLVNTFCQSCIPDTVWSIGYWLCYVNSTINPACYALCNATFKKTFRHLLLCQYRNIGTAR
PROTOCOL_NOTES: mAChR M4 cell-based functional assay: calcium mobilization (Fluo-4, FDSS), potentiation of EC20 acetylcholine response in hM4-Gqi5 CHO-K1 cells
TEST_CONTEXT: potentiation of EC20 acetylcholine response, calcium mobilization, human M4
EXPERIMENTAL_READOUT: EC50

Here's what some known entries look like.
SMILES_TEXT	TEST_RESULT
Cc1cc2nccc(=O)n2nc1N1CCc2ncc(Nc3ccncc3Cl)cc2C1	0.048 µM
Cc1cc(=O)n2nc(N3CCc4ncc(-c5cc(F)ncc5F)cc4C3)c(C)cc2n1	0.363 µM
Cc1cc2nccc(=O)n2nc1N1CCc2ncc(-c3ccccn3)cc2C1	1.14 µM
Cc1ncc(-c2cnc3c(c2)CN(c2nn4c(=O)c(Cl)cnc4cc2C)CC3)s1	0.373 µM

Given the compound Cc1cc2nccc(=O)n2nc1N1CCc2ncc(Nc3ccc(Cl)nc3)cc2C1 , what is its reported EC50? 0.263 µM

# iterate: COc1ccc(F)c(Nc2cnc3c(c2)CN(c2nn4c(=O)ccnc4cc2C)CC3)c1 0.085 µM

# iterate: Cc1c(N2CCc3ncc(N4CCOC4=O)cc3C2)nn2c(=O)ccnc2c1C 1.58 µM

# iterate: Cc1cc2nccc(=O)n2nc1N1CCc2ncc(Oc3ccccc3F)cc2C1 0.04 µM

---

TESTED_ON: human mAChR M4 (Homo sapiens)
Construct: expressed in transfected cells; host or cells: CHO-K1 (American Type Culture Collection), stably expressing hM4 and Gqi5
PROTOCOL_NOTES: mAChR M4 cell-based functional assay: calcium mobilization (Fluo-4, FDSS), potentiation of EC20 acetylcholine response in hM4-Gqi5 CHO-K1 cells
TEST_CONTEXT: CHO-K1, % ACh maximum at 30 μM; human M4
Classification field: met = Emax at 30 µM at or over 80%; not met = Emax at 30 µM under 80%.

MOLECULE	TESTED_ON	CLASS
Cc1cc(=O)n2nc(N3CCc4ncc(C(F)(F)F)cc4C3)c(C)cc2n1 [Compound 1-16]	human mAChR M4 (Homo sapiens)	not met
Cc1cc(=O)n2nc(N3CCc4ncc(-c5ccc(F)nc5)cc4C3)c(C)cc2n1 [Compound 1-212]	human mAChR M4 (Homo sapiens)	met
Cc1cc(=O)n2nc(N3CCc4ncc(N5CCCn6nccc65)cc4C3)c(C)c(C)c2n1 [Compound 2-23]	human mAChR M4 (Homo sapiens)	met
Cc1ncc(-c2cnc3c(c2)CN(c2nn4c(=O)ccnc4cc2C)CC3)c(C)n1 [Compound 1-420]	human mAChR M4 (Homo sapiens)	met
Cc1cc2nccc(=O)n2nc1N1CCc2ncc(NC(=O)C3CC(F)(F)C3)cc2C1 [Compound 2-120]	human mAChR M4 (Homo sapiens)	not met
Cc1cc2nccc(=O)n2nc1N1CCc2ncc(-c3ccc(Cl)nn3)cc2C1 [Compound 1-334]	human mAChR M4 (Homo sapiens)	not met
Cc1cc2nccc(=O)n2nc1N1CCc2ncc(Nc3cncc(Cl)c3)cc2C1 [Compound 2-142]	human mAChR M4 (Homo sapiens)	not met
Cc1cc2nc(C3CC3)cc(=O)n2nc1N1CCc2ncc(C(F)(F)F)cc2C1 [Compound 1-27]	human mAChR M4 (Homo sapiens)	not met
Cc1cc(=O)n2nc(N3CCc4ncc(-c5ccc(F)cc5F)cc4C3)c(C)cc2n1 [Compound 1-257]	human mAChR M4 (Homo sapiens)	not met
Cc1cc2nccc(=O)n2nc1N1CCc2ncc(NCC3CC3)cc2C1 [Compound 2-89]	human mAChR M4 (Homo sapiens)	met

hey, is Emax at 30 µM for this one >= 80%? Cc1cc2nccc(=O)n2nc1N1CCc2ncc(Cc3cccnc3)cc2C1 [Compound 1-378] met

# iterate: COCc1c(N2CCc3ncc(C(F)(F)F)cc3C2)nn2c(=O)ccnc2c1C [Compound 1-270] met
